# Tested On: OsWOX13 (Oryza sativa, UniProt Q5QMM3 1-267)
# Sequence: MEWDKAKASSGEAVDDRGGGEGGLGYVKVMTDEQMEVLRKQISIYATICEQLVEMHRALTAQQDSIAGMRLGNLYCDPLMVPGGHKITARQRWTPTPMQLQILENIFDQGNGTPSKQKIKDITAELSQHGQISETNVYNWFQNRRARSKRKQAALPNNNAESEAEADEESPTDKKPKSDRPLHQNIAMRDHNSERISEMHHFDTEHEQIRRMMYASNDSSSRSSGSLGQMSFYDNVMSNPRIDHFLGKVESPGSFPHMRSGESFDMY
# Procedure Text: protein-binding microarray (RPBM); PBS, 2% BSA, 51.3 ng/ul salmon testes DNA, 50 uM zinc acetate, 200 nM TF, 25 C, 1 h; high values mean tight binding
# Run Conditions: protein: recombinant; tags: N-terminal polyhistidine and DsRed monomer fusion (pET32a); label: CyDye5-dUTP incorporated in the synthesized complementary strand; 3' TTTTT single-stranded linker to array surface; dsDNA, one strand shown
Whole data set: some 35,000 sequences, median “fluorescence intensity (a.u.)” near 10,000, cut for the highest 2% near 52,000. Many of the other results were omitted from the sample, so the highest values are more common in it than they were.
Would you kindly list binding signal for each of these sequences?

Solved entries (count: 8):
• GGAATTGGTAACAGCAAGCTTAACAGAGAAAGGTAGTCGACGGAGTCACCTAGTGCAG = 8350 fluorescence intensity (a.u.)
• TTAAGATAGAGGAAACATTGATTGTATGCATGCTATATATCGGAGTCACCTAGTGCAG = 3750 fluorescence intensity (a.u.)
• TCATAATTGGATGGCATTGTACTGTGATTTGTTTGTGTTGCGGAGTCACCTAGTGCAG = 49200 fluorescence intensity (a.u.)
• AGTTTGGATTTTGGTTGAAATTGAAGATAATGTGACTGAACGGAGTCACCTAGTGCAG = 3240 fluorescence intensity (a.u.)
• GCTTAATTAGCTTGTATTTAGTTGGTTAATTTAGTGTTGTCGGAGTCACCTAGTGCAG = 43600 fluorescence intensity (a.u.)
• TGCTTGCTTGCTTGGTTTGATTGGTGGAGGTGGGAGGAGTCGGAGTCACCTAGTGCAG = 3920 fluorescence intensity (a.u.)
• TTGCAATTGCCAATTTCTTTATTATATTGTTGGTTTAACTCGGAGTCACCTAGTGCAG = 16700 fluorescence intensity (a.u.)
• ATAATAGATTTGGTCAAAATTTATCGAAAACCGATCGAAACGGAGTCACCTAGTGCAG = 13200 fluorescence intensity (a.u.)

# next sequence below
Q: Can you look up the measured binding signal of CCTAATTTGCGTGATTGGATTGGTTGGTTGTGTTGTAATGCGGAGTCACCTAGTGCAG for me?
Ans: 65000 fluorescence intensity (a.u.)

###

# Tested On: OsWOX13 (Oryza sativa, UniProt Q5QMM3 1-267)
# Sequence: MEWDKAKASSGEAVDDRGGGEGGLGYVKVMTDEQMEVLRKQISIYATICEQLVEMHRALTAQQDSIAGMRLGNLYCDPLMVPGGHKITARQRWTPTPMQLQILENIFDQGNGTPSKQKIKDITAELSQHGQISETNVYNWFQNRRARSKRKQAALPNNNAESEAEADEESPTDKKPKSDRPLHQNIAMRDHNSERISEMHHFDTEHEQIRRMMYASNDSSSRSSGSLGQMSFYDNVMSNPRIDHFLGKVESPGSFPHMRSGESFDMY
# Procedure Text: protein-binding microarray (RPBM); PBS, 2% BSA, 51.3 ng/ul salmon testes DNA, 50 uM zinc acetate, 200 nM TF, 25 C, 1 h; high values mean tight binding
# Run Conditions: protein: recombinant; tags: N-terminal polyhistidine and DsRed monomer fusion (pET32a); label: CyDye5-dUTP incorporated in the synthesized complementary strand; 3' TTTTT single-stranded linker to array surface; dsDNA, one strand shown
The full ranking holds about 35,000 sequences; the median of “fluorescence intensity (a.u.)” is about 10,000, and the highest 2% start at about 52,000. Shown is part of a subset that was picked to be rich in the highest values.
Outcome Measure: binding signal

* GTAGCAAATTTACAAATTTGCAGGGCTAGCTGTTGCGGTGCGGAGTCACCTAGTGCAG | 11100 fluorescence intensity (a.u.)
* AGGTGGCCCCATTAATTGATGATGAAATGCAAACCTAAATCGGAGTCACCTAGTGCAG | 9480 fluorescence intensity (a.u.)
* TGTTGATTTGCTACCCTTCCTTCCGTCCTCAACATTATCACGGAGTCACCTAGTGCAG | 31600 fluorescence intensity (a.u.)
* TTGATTGCCTCAGGTGGTCCGGACACCGTCTCAACATCCACGGAGTCACCTAGTGCAG | 17700 fluorescence intensity (a.u.)
* CTGATGATTGGTCAGCAGAGAAGACAGGTGGGATATCGAGCGGAGTCACCTAGTGCAG | 52900 fluorescence intensity (a.u.)

// batch mode: one binding signal value per listed entry
1. ATTATATATTTAATAAAATTAATTTGGTGTTGTATATTTACGGAGTCACCTAGTGCAG
2. CTGAGGACACTTAATGATTGATGCTCATAATATATTGTTTCGGAGTCACCTAGTGCAG
3. TCAATTAATATATAATTGGCATTGGGTTTGATCATCTCTGCGGAGTCACCTAGTGCAG
4. GAAACATGTTGAGATTGATTTACATTTTGTGCGCGAGAAGCGGAGTCACCTAGTGCAG
5. TATGATTAAAATTGTTTTGAACCATTGCACGCACCAGCATCGGAGTCACCTAGTGCAG
6. CATGGACAACAATCATTGCCTGTTACGCGCAAAGTTCTCGCGGAGTCACCTAGTGCAG
7. TTCTATGATTGATTGGTCGATAGGAAGACATATAACAGCGCGGAGTCACCTAGTGCAG

Ans:
["8780 fluorescence intensity (a.u.)", "17300 fluorescence intensity (a.u.)", "50700 fluorescence intensity (a.u.)", "18000 fluorescence intensity (a.u.)", "18500 fluorescence intensity (a.u.)", "8490 fluorescence intensity (a.u.)", "65500 fluorescence intensity (a.u.)"]
